Listed next: entries and their corresponding CC50.
# Test system: HT-29
# Assay Text: Antiproliferative activity against human HT-29 cells assessed as reduction in cell viability measured after 72 hrs by celltiter glo assay
# Type: functional

Compound	System Under Test	CC50
CC(C)(C)c1cccc(Nc2ncnc3cnc(/C=C/c4ccc(Cl)cc4)cc23)c1	HT-29	> 50 µM
c1cncc(-c2cc3c(Nc4ccc5scnc5c4)ncnc3cn2)c1	HT-29	> 50 µM
CN(C)c1ccc(-c2cc3c(Nc4ccc5scnc5c4)ncnc3cn2)cc1	HT-29	> 50 µM
c1nc(Nc2ccc3scnc3c2)c2cc(N3CCNCC3)ncc2n1	HT-29	21.2 µM
Clc1cc2c(Nc3ccc4scnc4c3)ncnc2cn1	HT-29	> 50 µM
Cc1ccc(Nc2ncnc3cnc(/C=C/c4ccc(Cl)cc4)cc23)cn1	HT-29	5.84 µM
CC(C)c1ccc(-c2cc3c(Nc4ccc5scnc5c4)ncnc3cn2)cc1	HT-29	> 50 µM
c1coc(-c2cc3c(Nc4ccc5scnc5c4)ncnc3cn2)c1	HT-29	> 50 µM
C=Cc1cc2c(Nc3ccc4scnc4c3)ncnc2cn1	HT-29	> 50 µM
Clc1ccc(/C=C/c2cc3c(Nc4ccc5scnc5c4)ncnc3cn2)cc1	HT-29	4.43 µM
c1nc(Nc2ccc3scnc3c2)c2cc(-c3ccoc3)ncc2n1	HT-29	> 50 µM
CN1C(=O)C(Cc2c[nH]c3ccccc23)NC1=S (configuration not stated)	HT-29	> 50 µM
C(=C\c1cc2c(Nc3ccc4scnc4c3)ncnc2cn1)/c1ccccc1	HT-29	> 50 µM
Clc1ccc(/C=C/c2cc3c(Nc4ccc5cccnc5c4)ncnc3cn2)cc1	HT-29	> 50 µM
CCc1ccc(C#Cc2cc3c(Nc4ccc5scnc5c4)ncnc3cn2)cc1	HT-29	> 50 µM
Clc1ccc(/C=C/c2cc3c(Nc4cnc5ccccc5c4)ncnc3cn2)cc1	HT-29	8.21 µM
Cc1ccc(-c2cc3c(Nc4ccc5scnc5c4)ncnc3cn2)cc1	HT-29	> 50 µM
Clc1ccc(/C=C/c2cc3c(Nc4ccc5sc(Cl)nc5c4)ncnc3cn2)cc1	HT-29	36.2 µM
N#Cc1ccc(Nc2ncnc3cnc(/C=C/c4ccc(Cl)cc4)cc23)cn1	HT-29	34.1 µM
c1nc(Nc2ccc3scnc3c2)c2cc(N3CCN(C4COC4)CC3)ncc2n1	HT-29	> 50 µM
C(#Cc1cc2c(Nc3ccc4scnc4c3)ncnc2cn1)c1ccccc1	HT-29	> 50 µM
Clc1ccc(/C=C/c2cc3c(Nc4ccc5ncsc5c4)ncnc3cn2)cc1	HT-29	> 50 µM
